Target system: T1, ROR1 extracellular domain Fc fusion:Fc heterodimer, monomer (human)
T1 construct: Heterodimer of one ROR1 ECD-Fc chain and one Fc chain; also called ROR1 monomer; hROR1 monomeric ECD-Fc fusion protein; not shown: Fc part; Fc alone
T1 sequence (Q01973 30-406, one chain of several): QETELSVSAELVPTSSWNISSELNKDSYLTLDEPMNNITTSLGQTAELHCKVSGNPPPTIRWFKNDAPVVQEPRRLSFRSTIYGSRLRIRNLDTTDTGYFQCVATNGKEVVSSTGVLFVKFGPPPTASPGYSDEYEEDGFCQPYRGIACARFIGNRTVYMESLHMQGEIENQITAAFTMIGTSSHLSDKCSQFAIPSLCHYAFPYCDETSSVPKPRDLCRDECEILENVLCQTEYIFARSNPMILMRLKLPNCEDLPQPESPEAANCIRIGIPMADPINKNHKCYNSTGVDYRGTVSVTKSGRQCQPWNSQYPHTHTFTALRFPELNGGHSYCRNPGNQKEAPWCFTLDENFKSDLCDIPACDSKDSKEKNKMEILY
Test name: SPR, immobilised ROR1 monomer, antibody injected, 1:1 model
Value kind: koff (s⁻¹)

# Binder, Result number
records = [
    ("Antibody 601-149 (antibody, V domains shown) VH: EAQLVESGGGLVKPGGSLRLSCAASGFTFSDYYMGWVRQAPGKGLKWLSYISDRAHTIYDTDSVKGRFTISRDDAKSSLYLRMNNLRVEDTAVYYCARAVGAGEGFDYWGQGTLVTVSS VL: DIQLTQSPSSLSASVGDRVTITCQASQDVRNYLNWYQQKPGKAPNLLIYDATNLESGVPSRFSGSGSGTDFTFTISSLQPEDFATYYCQQYDNLPLSFGGGTKVEIK", 0.00069),
    ("Antibody 601-103 (antibody, V domains shown) VH: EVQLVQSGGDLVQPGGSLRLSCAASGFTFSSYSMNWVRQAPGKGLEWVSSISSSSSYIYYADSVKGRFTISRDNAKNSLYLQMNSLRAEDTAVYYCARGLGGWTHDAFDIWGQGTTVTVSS VL: QSVLTQPASVSGSPGQSITISCTGTTSDVGGYNYVSWYQQHPGKAPKLMIYDVSKRPSGVSNRFSGSKSGNTASLTISGLQAEDEADYYCSSYTSSSTDVFGTGTKLTVL", 0.005),
    ("Antibody 601-130 (antibody, V domains shown) VH: EVQLVETGGGLVKPGGSLRLSCEASGFSLSSYSMNWVRQAPGKGLEWVSSISSSSTHIYYADSLKGRFTISRDNAKNSLFLQMDNLRAEDTAVYYCARATIGFDYWGQGTLVTVSS VL: QSVLTQPPSVSGAPGQRVTISCTGSSSNIGAGYDVHWYQQLPGTAPKLLIYGNSNRPSGVPDRFSGSKSGTSASLAITGLQAEDEADYYCQSYDSSLSGYVFGTGTKLTVL", 0.0018),
]

Entry source: patent US20180009892A1
